# system-name: CXCR2 (Homo sapiens (Human), UniProt P25025)
# Sequence (P25025 whole entry): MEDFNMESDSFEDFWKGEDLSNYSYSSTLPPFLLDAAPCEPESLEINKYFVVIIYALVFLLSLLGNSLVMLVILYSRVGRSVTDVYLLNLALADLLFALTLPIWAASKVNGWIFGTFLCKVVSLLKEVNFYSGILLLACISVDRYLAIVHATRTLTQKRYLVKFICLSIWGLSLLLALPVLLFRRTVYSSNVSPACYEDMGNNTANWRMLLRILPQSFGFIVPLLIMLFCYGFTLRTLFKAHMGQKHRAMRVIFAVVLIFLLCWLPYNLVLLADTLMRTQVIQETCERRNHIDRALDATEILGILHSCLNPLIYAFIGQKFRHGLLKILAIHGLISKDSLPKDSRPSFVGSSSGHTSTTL
# assay-procedure: Inhibition of GROα-mediated intracellular calcium release in human neutrophils (FLIPR-3 Ca2+ mobilization)
# Format: cell-based
# condition: human neutrophils, 25 nM GROα; read-out: IC50
observable: IC50 (nM)

A = CC1(C)OB(c2ccccc2CCSc2ccc(C(=O)Nc3ccc(F)cc3)cn2)OC1(C)C
B = O=C(Nc1ccc(F)cc1)c1ccc(SCc2ccc3nonc3c2)nc1
Prompt: Select the item whose IC50 value is smaller, choosing between A and B . Provide the label of your selected option as the answer.
Response: B
(B: 216 nM, A: 611 nM)

====

# system-name: CXCR2 (Homo sapiens (Human))
# assay-procedure: Inhibition of GROα-mediated intracellular calcium release in human neutrophils (FLIPR-3 Ca2+ mobilization)
# Assay type: cell-based
# condition: human neutrophils, 25 nM GROα; read-out: IC50
Listing of entries alongside the reported IC50.

> print(dat)
                              smiles.record   result
1  N#Cc1ccc(C(=O)CSc2ccc(C(=O)Nc3ccc(F)cc3)cn2)cc1  > 10 µM
2  Cc1onc(-c2ccccc2)c1CSc1ccc(C(=O)Nc2ccc(F)cc2)cn1   > 5 µM
3  O=C(CSc1ccc(C(=O)Nc2ccc(F)cc2)cn1)c1ccc(C(F)(F)F)cc1  > 10 µM
4  O=C(CSc1ccc(C(=O)Nc2ccc(F)cc2)cn1)c1ccc(F)c(F)c1   > 5 µM
5  O=C(Nc1ccc(F)cc1)c1ccc(SCc2ccc([N+](=O)[O-])o2)nc1   > 5 µM
6   O=C(Nc1ccncc1)c1ccc(SCc2ccccc2B(O)O)nc1  0.52 µM
7  Cc1c(C(=O)CSc2ccc(C(=O)Nc3ccc(F)cc3)cn2)sc2ccc(Cl)cc12  0.78 µM
8  Cc1nc(-c2ccc(CSc3ccc(C(=O)Nc4ccc(F)cc4)cn3)cc2)cs1  > 10 µM

Prompt: # returns recorded IC50 (system: CXCR2 (Homo sapiens (Human))) for O=C(Nc1ccc(F)cc1)c1ccc(SCc2ccc(Cl)c(Cl)c2)nc1
Response: 1.61 µM

Prompt: # returns recorded IC50 (system: CXCR2 (Homo sapiens (Human))) for O=C(Nc1ccc(F)cc1)c1ccc(SCCCCCCN2C(=O)c3ccc([N+](=O)[O-])cc3C2=O)nc1
Response: > 10 µM

Prompt: # returns recorded IC50 (system: CXCR2 (Homo sapiens (Human))) for Nc1nc(N)c2nc(CSc3ccc(C(=O)Nc4ccc(F)cc4)cn3)cnc2n1
Response: > 10 µM

Prompt: # returns recorded IC50 (system: CXCR2 (Homo sapiens (Human))) for Cc1nc(-c2ccc(C(F)(F)F)cc2)sc1C(=O)CSc1ccc(C(=O)Nc2ccc(F)cc2)cn1
Response: > 5 µM

Prompt: # returns recorded IC50 (system: CXCR2 (Homo sapiens (Human))) for O=C(CSc1ccc(C(=O)Nc2ccc(F)cc2)cn1)c1ccncc1
Response: > 10 µM

Prompt: # returns recorded IC50 (system: CXCR2 (Homo sapiens (Human))) for O=C(Nc1ccc(F)cc1)c1ccc(SCc2ccc(OC(F)(F)F)cc2)nc1
Response: > 10 µM

====

# system-name: CXCR2 (Homo sapiens (Human), UniProt P25025)
# assay-procedure: Inhibition of GROα-mediated intracellular calcium release in human neutrophils (FLIPR-3 Ca2+ mobilization)
# Format: cell-based
# condition: human neutrophils, 25 nM GROα; read-out: IC50
observable: IC50

Prompt: Name the reported IC50 value associated with the compound CN(C(=O)c1ccc(SCc2ccccc2B(O)O)nc1)c1ccc(F)cc1 [Compound 154]
Response: > 5 µM

Prompt: Name the reported IC50 value associated with the compound O=C(Nc1ccc(F)cc1)c1ccc(SCc2nc3ccccc3s2)nc1 [Compound 68]
Response: > 10 µM

Prompt: Name the reported IC50 value associated with the compound O=C(Nc1ccc(F)cc1)c1ccc(SC[N+](=O)[O-])nc1 [Compound 84]
Response: > 10 µM

Prompt: Name the reported IC50 value associated with the compound COC(=O)c1cccc(CSc2ccc(C(=O)Nc3ccc(F)cc3)cn2)c1 [Compound 22]
Response: > 5 µM

Prompt: Name the reported IC50 value associated with the compound O=C(CSc1ccc(C(=O)Nc2ccc(F)cc2)cn1)c1ccc(-c2cccs2)cc1 [Compound 98]
Response: > 10 µM

Prompt: Name the reported IC50 value associated with the compound O=C(Nc1ccc(F)cc1)c1ccc(SCCOc2ccccc2)nc1 [Compound 72]
Response: > 10 µM

Prompt: Name the reported IC50 value associated with the compound O=C(c1ccc(SCc2ccccc2B(O)O)nc1)N(Cc1ccncc1)c1ccc(F)cc1 [Compound 157]
Response: 0.89 µM

Prompt: Name the reported IC50 value associated with the compound O=C(Nc1ccc(F)cc1)c1ccc(SCc2ccccc2-c2nn[nH]n2)nc1 [Compound 26]
Response: 0.173 µM

Prompt: Name the reported IC50 value associated with the compound O=C(Nc1ccc(F)cc1)c1ccc(SCC(=O)c2cc3ccc(Br)cc3o2)nc1 [Compound 119]
Response: 0.981 µM

Prompt: Name the reported IC50 value associated with the compound COC(=O)c1ccc(CSc2ccc(C(=O)Nc3ccc(F)cc3)cn2)cc1 [Compound 23]
Response: > 10 µM

Prompt: Name the reported IC50 value associated with the compound O=C(Nc1ccc(F)cc1)c1ccc(SCc2cccc(-n3cccc3)c2)nc1 [Compound 38]
Response: > 10 µM

Prompt: Name the reported IC50 value associated with the compound O=C(Nc1ccc(F)cc1)c1ccc(SCc2cc(OC(F)(F)F)ccc2O)nc1 [Compound 14]
Response: 0.028 µM

====

# system-name: CXCR2 (Homo sapiens (Human), UniProt P25025)
# assay-procedure: Inhibition of GROα-mediated intracellular calcium release in human neutrophils (FLIPR-3 Ca2+ mobilization)
# Format: cell-based
# condition: human neutrophils, 25 nM GROα; read-out: IC50
observable: IC50

// known answers, use as guide
> print(dat)
                                   compound  observable    result
1  CC(=O)Oc1ccccc1CSc1ccc(C(=O)Nc2ccc(F)cc2)cn1 [Compound 13a]        IC50    > 5 µM
2  Cc1onc(-c2ccccc2)c1C(=O)CSc1ccc(C(=O)Nc2ccc(F)cc2)cn1        IC50    > 5 µM
3  CC1(C)C2CC3OB(c4ccccc4CSc4ccc(C(=O)Nc5ccc(F)cc5)cn4)OC3(C)C1C2 (centres unmarked)        IC50  0.059 µM
4  O=C(Nc1ccc(F)cc1O)c1ccc(SCc2ccccc2B(O)O)nc1        IC50  0.037 µM
5  O=C(Nc1ccc(F)cc1)c1ccc(SCC(=O)c2csc3ccc(Br)cc23)nc1        IC50   1.25 µM

Prompt: # returns recorded IC50 (system: CXCR2 (Homo sapiens (Human), UniProt P25025)) for O=C(Nc1ccc(F)cc1)c1ccc(SCc2ccccc2-c2cccs2)nc1
Response: > 5 µM

Prompt: # returns recorded IC50 (system: CXCR2 (Homo sapiens (Human), UniProt P25025)) for CC1(C)OB(c2ccc(F)cc2CSc2ccc(C(=O)Nc3ccc(F)cc3)cn2)OC1(C)C
Response: 1.23 µM

Prompt: # returns recorded IC50 (system: CXCR2 (Homo sapiens (Human), UniProt P25025)) for O=C(Nc1ccc(-c2nn[nH]n2)cc1)c1ccc(SCc2ccccc2B(O)O)nc1
Response: > 10 µM

Prompt: # returns recorded IC50 (system: CXCR2 (Homo sapiens (Human), UniProt P25025)) for O=C(Nc1ccc(F)cc1)c1ccc(SCC2CCOCC2)nc1
Response: > 10 µM

Prompt: # returns recorded IC50 (system: CXCR2 (Homo sapiens (Human), UniProt P25025)) for CC1(C)OB(c2ccc(OC(F)(F)F)cc2CSc2ccc(C(=O)Nc3ccc(F)cc3)cn2)OC1(C)C
Response: 0.072 µM

Prompt: # returns recorded IC50 (system: CXCR2 (Homo sapiens (Human), UniProt P25025)) for O=C(CSc1ccc(C(=O)Nc2ccc(F)cc2)cn1)c1cccc(F)c1
Response: > 10 µM

Prompt: # returns recorded IC50 (system: CXCR2 (Homo sapiens (Human), UniProt P25025)) for O=C(Nc1ccc(F)cc1)c1ccc(SCc2cc3ccccc3n2S(=O)(=O)c2ccccc2)nc1
Response: > 5 µM

Prompt: # returns recorded IC50 (system: CXCR2 (Homo sapiens (Human), UniProt P25025)) for O=C(Nc1ccc(F)cc1)c1ccc(SCc2nn[nH]n2)nc1
Response: 3.9 µM

Prompt: # returns recorded IC50 (system: CXCR2 (Homo sapiens (Human), UniProt P25025)) for Cc1n[nH]c(C)c1CCSc1ccc(C(=O)Nc2ccc(F)cc2)cn1
Response: > 5 µM

Prompt: # returns recorded IC50 (system: CXCR2 (Homo sapiens (Human), UniProt P25025)) for Cc1nc(-c2ccccc2)sc1C(=O)CSc1ccc(C(=O)Nc2ccc(F)cc2)cn1
Response: > 10 µM

Prompt: # returns recorded IC50 (system: CXCR2 (Homo sapiens (Human), UniProt P25025)) for O=C(Nc1ccc(F)cc1)c1ccc(SCC(=O)c2cc3ccccc3o2)nc1
Response: > 10 µM

Prompt: # returns recorded IC50 (system: CXCR2 (Homo sapiens (Human), UniProt P25025)) for O=C(Nc1ccc(F)cc1)c1ccc(SCC2CCCCO2)nc1 (centres unmarked)
Response: > 5 µM
